B1: RAD51 (parent)
chain: RFLRMLLRLADEFGVAVVITNQVV

Variants of: B1
Assay overview: protein stability index of a GFP-peptide fusion (GPS, HEK-293T) (PSI 1-6); higher = more stable;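 further: lentivirally expressed fusions sorted by FACS into six bins by GFP to DsRed ratio, PSI derived from sequencing read proportions per bin multiplied by bin number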
Stated conditions: c terminus: a fixed tail appended
Assay readout: protein stability index
Answer with a number only.

>  <Mutation descriptor>
N21L

>  <protein stability index>
1.97

$$$$
>  <Mutation descriptor>
V17Y

>  <protein stability index>
2.83

$$$$
>  <Mutation descriptor>
N21M

>  <protein stability index>
4.31

$$$$
>  <Mutation descriptor>
L7Y

>  <protein stability index>
2.13

$$$$
>  <Mutation descriptor>
R1I

>  <protein stability index>
2.9

$$$$

Recorded result, R8K , protein stability index: 2.33

Recorded result, V23K , protein stability index: 2.73

Recorded result, D11V , protein stability index: 2.46

Recorded result, L9Q , protein stability index: 2.88

Recorded result, A16R , protein stability index: 2.25

Recorded result, R4Y , protein stability index: 2.93

Recorded result, V24S , protein stability index: 1.44

Recorded result, F13P , protein stability index: 1.25

Recorded result, D11Y , protein stability index: 3.81

Recorded result, I19L , protein stability index: 1.45

Recorded result, F2L , protein stability index: 1.6

Recorded result, I19A , protein stability index: 3.02

Recorded result, V18F , protein stability index: 1.24

Recorded result, R8M , protein stability index: 2.17

Recorded result, R8I , protein stability index: 3.12

Recorded result, T20Y , protein stability index: 1.97

Recorded result, L3W , protein stability index: 2.03

Recorded result, A10M , protein stability index: 3.27
